System: MT4
Experiment: Cytotoxic concentration of compound required to reduce the viability of mock-infected MT-4 cells by 50%
Format: functional
Settings: Homo sapiens
Here the recorded CC50 is given for each entry.

compound	unit-of-measurement	CC50
O=c1[nH]c(=O)n(COCCO)c(Sc2ccccc2)c1F	µM	288
O=c1[nH]c(=O)n(COCCO)c(Sc2ccccc2)c1Cl	µM	100
Nc1ccn([C@H]2CC[C@@H](CO)O2)c(=O)n1 [ZALCITABINE]	µM	40
O=c1[nH]c(=O)n(COCCO)c(I)c1F	µM	32
